Origin of measurements: paper PMC7411605

Consider the following compounds; for each one, report its IC50.
# SYSTEM NAME: Bovine milk xanthine oxidase (XO, EC 1.17.3.2) (Bos taurus, UniProt P80457)
# Construct: Xanthine oxidase from bovine milk (EC 1.17.3.2); purchased Sigma Aldrich Co., (St. Louis, MO, USA); host or cells: bovine milk
# PROCEDURE SUMMARY: Xanthine oxidase activity (uric acid formation at 295 nm)
# Assay type: biochemical
# EXPERIMENTAL CONDITIONS: sample concentration which leads to 50% xanthine oxidase activity loss; xanthine substrate, pH 7.5, 37 °C; read-out: IC50, xanthine oxidase inhibition (converted)
Write the answer as a number in µM, unit excluded.

Quick one: IC50 for CC(C)=CCc1c(-c2coc3cc(O)cc(O)c3c2=O)cc2c(c1O)OC(C)(C)C=C2 [Compound 6] ?
20.4

Item CC(C)=CCc1c2c(c3occ(-c4ccc(O)cc4)c(=O)c3c1O)C=CC(C)(C)O2 [Compound 8, osajin] has what recorded IC50?
34.7

I have this compound here, CC(C)=CCc1cc(-c2coc3cc(O)cc(O)c3c2=O)c(CC=C(C)C)c(O)c1O [Compound 4] , and I need its recorded IC50.
10.9

Quick check: IC50 of CC(C)=CCc1c(O)c(CC=C(C)C)c2occ(-c3ccc(O)cc3)c(=O)c2c1O [Compound 7, 8-γ,γ-dimethylallylwighteone] ?
16.9

Consider the compound shown here: C=CC(C)(C)C1=Cc2c(c(CC=C(C)C)c3occ(-c4ccc(O)c(O)c4)c(=O)c3c2O)OC1(C)C [Compound 5, flemiphilippinin A] What is its recorded IC50?
14.8

Please look up its IC50: CC(C)=CCc1c2c(c(O)c3c(=O)c(-c4ccc(O)c(O)c4)coc13)C=CC(C)(C)O2 [Compound 2, auriculasin]
12.4

Give its IC50 value. Item: COc1cc(-c2coc3c(CC=C(C)C)c(O)c(CC=C(C)C)c(O)c3c2=O)ccc1O [Compound 9, flemingsin]
36.4

// query IC50 value for entry CC(C)=CCc1c(O)c(CC=C(C)C)c2occ(-c3ccc(O)c(O)c3)c(=O)c2c1O [Compound 3, 6,8-diprenylorobol]
7.8

Consider the compound shown here: O=c1c(-c2ccc(O)cc2)coc2cc(O)cc(O)c12 [Compound 1, genistein] What is its recorded IC50?
25

---

# SYSTEM NAME: xanthine oxidase (Bos taurus, UniProt P80457)
# Construct: Xanthine oxidase from bovine milk (EC 1.17.3.2); purchased Sigma Aldrich Co., (St. Louis, MO, USA); host or cells: bovine milk
# Sequence (P80457 whole entry): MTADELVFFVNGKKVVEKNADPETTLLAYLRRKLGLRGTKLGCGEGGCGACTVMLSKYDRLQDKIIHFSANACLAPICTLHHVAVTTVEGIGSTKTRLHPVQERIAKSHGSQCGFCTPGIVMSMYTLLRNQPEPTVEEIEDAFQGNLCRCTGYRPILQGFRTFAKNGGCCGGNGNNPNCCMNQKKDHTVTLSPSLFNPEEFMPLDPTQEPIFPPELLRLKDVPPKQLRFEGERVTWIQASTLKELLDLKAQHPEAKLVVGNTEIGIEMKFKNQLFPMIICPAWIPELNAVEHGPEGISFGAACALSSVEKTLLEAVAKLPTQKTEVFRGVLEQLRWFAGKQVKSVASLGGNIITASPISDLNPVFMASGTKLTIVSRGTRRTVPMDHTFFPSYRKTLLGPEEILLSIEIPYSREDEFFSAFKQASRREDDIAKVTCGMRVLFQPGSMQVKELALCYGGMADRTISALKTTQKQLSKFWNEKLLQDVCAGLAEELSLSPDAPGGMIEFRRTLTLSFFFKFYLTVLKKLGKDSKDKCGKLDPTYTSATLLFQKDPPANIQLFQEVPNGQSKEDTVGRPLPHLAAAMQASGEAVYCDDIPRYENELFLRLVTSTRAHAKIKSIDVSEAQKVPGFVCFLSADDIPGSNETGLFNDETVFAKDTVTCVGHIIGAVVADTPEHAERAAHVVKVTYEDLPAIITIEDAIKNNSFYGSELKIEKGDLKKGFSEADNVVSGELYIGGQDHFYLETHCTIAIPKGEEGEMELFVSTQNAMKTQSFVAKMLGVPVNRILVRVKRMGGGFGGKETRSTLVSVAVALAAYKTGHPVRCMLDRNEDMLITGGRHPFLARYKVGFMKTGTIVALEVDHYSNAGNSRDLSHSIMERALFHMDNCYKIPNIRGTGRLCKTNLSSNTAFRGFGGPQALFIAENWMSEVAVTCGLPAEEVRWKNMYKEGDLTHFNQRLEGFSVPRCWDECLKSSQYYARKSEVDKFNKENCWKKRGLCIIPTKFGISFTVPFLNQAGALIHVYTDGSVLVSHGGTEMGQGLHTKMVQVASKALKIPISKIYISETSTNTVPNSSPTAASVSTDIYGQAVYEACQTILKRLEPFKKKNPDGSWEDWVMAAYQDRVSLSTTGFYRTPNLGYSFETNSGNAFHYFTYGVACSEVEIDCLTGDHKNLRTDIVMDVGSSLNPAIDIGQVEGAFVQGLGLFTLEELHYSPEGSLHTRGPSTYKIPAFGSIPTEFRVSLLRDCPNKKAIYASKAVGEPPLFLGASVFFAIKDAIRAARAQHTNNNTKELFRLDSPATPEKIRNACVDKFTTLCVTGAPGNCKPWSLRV
# PROCEDURE SUMMARY: Fluorescence quenching of xanthine oxidase (binding affinity)
# Parameters: species or system bovine
# EXPERIMENTAL CONDITIONS: fluorescence quenching
Record form. Attribute: number of binding sites n. Fill in for each entry.
The response must contain the number and no unit.

// lookup number of binding sites n for COc1cc(-c2coc3c(CC=C(C)C)c(O)c(CC=C(C)C)c(O)c3c2=O)ccc1O
0.6736

Given the molecule CC(C)=CCc1c2c(c(O)c3c(=O)c(-c4ccc(O)c(O)c4)coc13)C=CC(C)(C)O2 , what is its reported number of binding sites n?
1.0359

Look up number of binding sites n for this molecule: CC(C)=CCc1c(-c2coc3cc(O)cc(O)c3c2=O)cc2c(c1O)OC(C)(C)C=C2
0.8154

Consider the molecule shown here: CC(C)=CCc1c(O)c(CC=C(C)C)c2occ(-c3ccc(O)cc3)c(=O)c2c1O What is its recorded number of binding sites n?
0.8836

---

# SYSTEM NAME: xanthine oxidase (Bos taurus)
# Construct: Xanthine oxidase from bovine milk (EC 1.17.3.2); purchased Sigma Aldrich Co., (St. Louis, MO, USA); host or cells: bovine milk
# PROCEDURE SUMMARY: Fluorescence quenching of xanthine oxidase (binding affinity)
# Parameters: species or system bovine
# EXPERIMENTAL CONDITIONS: fluorescence quenching
Hi there, I'd appreciate the recorded number of binding sites n for every entry that follows.
The answer should be written as a number, with no unit following it.

Requested read-out: number of binding sites n. Entry: C=CC(C)(C)C1=Cc2c(c(CC=C(C)C)c3occ(-c4ccc(O)c(O)c4)c(=O)c3c2O)OC1(C)C
1.0018

Look at this compound and give its reported number of binding sites n. CC(C)=CCc1c(O)c(CC=C(C)C)c2occ(-c3ccc(O)c(O)c3)c(=O)c2c1O
1.4392

Would you mind telling me what number of binding sites n value was observed for O=c1c(-c2ccc(O)cc2)coc2cc(O)cc(O)c12 ?
0.7268

Return reported number of binding sites n; argument: CC(C)=CCc1c2c(c3occ(-c4ccc(O)cc4)c(=O)c3c1O)C=CC(C)(C)O2
0.6889

Which number of binding sites n value is on record for CC(C)=CCc1cc(-c2coc3cc(O)cc(O)c3c2=O)c(CC=C(C)C)c(O)c1O ?
1.4031

---

# System: human LDL
# PROCEDURE SUMMARY: TBARS assay of Cu2+ induced LDL oxidation
# Assay type: biochemical
# EXPERIMENTAL CONDITIONS: LDL 500 μg/mL, 10 μM Cu2+, 37 °C, 4 h
pIC50: −log10 of the molar value.
The label depends only on pIC50: yes if it is at least 5, no if it is smaller.

Kindly determine if pIC50 recorded for CC(C)=CCc1cc(-c2coc3cc(O)cc(O)c3c2=O)c(CC=C(C)C)c(O)c1O is above or exactly 5.
yes

Dear colleague, could you confirm whether CC(C)(Sc1cc(C(C)(C)C)c(O)c(C(C)(C)C)c1)Sc1cc(C(C)(C)C)c(O)c(C(C)(C)C)c1 [Probucol, probucol, reference compound] has pIC50 at or above 5?
no

For this compound, is measured pIC50 5 or higher? CC(C)=CCc1c2c(c3occ(-c4ccc(O)cc4)c(=O)c3c1O)C=CC(C)(C)O2
no

Given CC(C)=CCc1c(O)c(CC=C(C)C)c2occ(-c3ccc(O)c(O)c3)c(=O)c2c1O , state whether its pIC50 is at least 5.
yes

State whether the measured pIC50 reaches 5, counting equality as reaching it, for COc1cc(-c2coc3c(CC=C(C)C)c(O)c(CC=C(C)C)c(O)c3c2=O)ccc1O
no

Quick check, pIC50 >= 5? CC(C)=CCc1c2c(c(O)c3c(=O)c(-c4ccc(O)c(O)c4)coc13)C=CC(C)(C)O2
yes

Kindly determine if pIC50 recorded for O=c1c(-c2ccc(O)cc2)coc2cc(O)cc(O)c12 is above or exactly 5.
no

Does CC(C)=CCc1c(O)c(CC=C(C)C)c2occ(-c3ccc(O)cc3)c(=O)c2c1O have a reported pIC50 of at least 5?
no

---

Exercise: for every item that follows, state its recorded Stern–Volmer constant KSV.
# SYSTEM NAME: xanthine oxidase (Bos taurus)
# Construct: Xanthine oxidase from bovine milk (EC 1.17.3.2); purchased Sigma Aldrich Co., (St. Louis, MO, USA); host or cells: bovine milk
# PROCEDURE SUMMARY: Fluorescence quenching of xanthine oxidase (binding affinity)
# Set-up: species or system bovine
# EXPERIMENTAL CONDITIONS: excitation 290 nm, emission 300-400 nm

Name the reported Stern–Volmer constant KSV value associated with the compound CC(C)=CCc1c(-c2coc3cc(O)cc(O)c3c2=O)cc2c(c1O)OC(C)(C)C=C2
36450 L/mol

May I ask what Stern–Volmer constant KSV has been recorded for CC(C)=CCc1c(O)c(CC=C(C)C)c2occ(-c3ccc(O)c(O)c3)c(=O)c2c1O ?
125300 L/mol

Give the measured Stern–Volmer constant KSV of CC(C)=CCc1c2c(c(O)c3c(=O)c(-c4ccc(O)c(O)c4)coc13)C=CC(C)(C)O2 .
77550 L/mol

Data request, read-out Stern–Volmer constant KSV, for CC(C)=CCc1c(O)c(CC=C(C)C)c2occ(-c3ccc(O)cc3)c(=O)c2c1O
47970 L/mol

---

# SYSTEM NAME: Bovine milk xanthine oxidase (XO, EC 1.17.3.2) (Bos taurus, UniProt P80457)
# Construct: Xanthine oxidase from bovine milk (EC 1.17.3.2); purchased Sigma Aldrich Co., (St. Louis, MO, USA); host or cells: bovine milk
# PROCEDURE SUMMARY: Xanthine oxidase inhibition kinetics (Lineweaver–Burk and Dixon plots)
# Assay type: biochemical
# EXPERIMENTAL CONDITIONS: binding of inhibitor to enzyme-substrate complex; secondary plot of intercept
Hi there, I'd appreciate the recorded KIS for every entry that follows.
State the answer as a number, implicitly in µM.

Field request: KIS | item: CC(C)=CCc1c(O)c(CC=C(C)C)c2occ(-c3ccc(O)c(O)c3)c(=O)c2c1O
15.5

Can you look up the measured KIS of CC(C)=CCc1c(-c2coc3cc(O)cc(O)c3c2=O)cc2c(c1O)OC(C)(C)C=C2 for me?
40.0

Which value of KIS has been reported for CC(C)=CCc1c2c(c3occ(-c4ccc(O)cc4)c(=O)c3c1O)C=CC(C)(C)O2 in the records?
52.4

For the molecule CC(C)=CCc1cc(-c2coc3cc(O)cc(O)c3c2=O)c(CC=C(C)C)c(O)c1O , what KIS is on record?
23.0

// lookup KIS for CC(C)=CCc1c(O)c(CC=C(C)C)c2occ(-c3ccc(O)cc3)c(=O)c2c1O
12.9

I'd like to know its KIS. The molecule in question is C=CC(C)(C)C1=Cc2c(c(CC=C(C)C)c3occ(-c4ccc(O)c(O)c4)c(=O)c3c2O)OC1(C)C
26.3

Dear colleague, I am looking for the recorded KIS of the following molecule: COc1cc(-c2coc3c(CC=C(C)C)c(O)c(CC=C(C)C)c(O)c3c2=O)ccc1O
49.0

Consider the molecule CC(C)=CCc1c2c(c(O)c3c(=O)c(-c4ccc(O)c(O)c4)coc13)C=CC(C)(C)O2 and give its measured KIS.
28.1
